- Target Entity: cloned human μ opioid receptor (Homo sapiens, UniProt P35372)
- Construct: expressed in transfected cells
- Sequence (P35372 whole entry): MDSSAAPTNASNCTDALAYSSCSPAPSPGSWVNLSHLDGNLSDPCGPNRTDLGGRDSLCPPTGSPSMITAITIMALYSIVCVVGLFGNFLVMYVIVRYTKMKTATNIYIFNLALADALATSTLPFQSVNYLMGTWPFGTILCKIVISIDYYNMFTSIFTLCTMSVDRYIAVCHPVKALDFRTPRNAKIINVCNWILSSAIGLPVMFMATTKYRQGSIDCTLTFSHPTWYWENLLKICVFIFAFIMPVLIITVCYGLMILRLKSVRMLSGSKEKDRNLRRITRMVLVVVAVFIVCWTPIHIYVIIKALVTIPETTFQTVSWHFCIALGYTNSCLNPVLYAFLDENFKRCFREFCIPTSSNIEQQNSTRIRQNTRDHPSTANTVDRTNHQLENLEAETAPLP
- Method: Inhibition of DAMGO-stimulated [35S]GTPγS binding
- Type: biochemical
- Condition Summary: antagonism of agonist DAMGO, read-out: μ, DAMGO Ke
Value Type: Kb (nM)
I only need the number, in nM, no unit after it.

The following molecules have reported results that may help.
Molecule	Value Type	Unit Spec	Observed Measurement
CC(C)[C@@H](CN1CCN(c2cccc(O)c2)[C@@H](C)C1)NC(=O)[C@H]1Cc2ccc(O)cc2CN1 [Compound 5j]	Kb	nM	22
CC1CN(CCCc2ccccc2)CCC1(C)c1cccc(O)c1 (stereo not drawn) [Compound 2c, reference compound]	Kb	nM	0.1
C[C@H]1CN(C)CCN1c1cccc(O)c1 [Compound 5f, (S)-3-(2,4-Dimethylpiperazin-1-yl)phenol]	Kb	nM	508
C[C@H]1CN(CCCc2ccccc2)CCN1c1cccc(O)c1 [Compound 5b]	Kb	nM	0.88
C[C@@H]1CN(CCCc2ccccc2)[C@@H](C)CN1c1cccc(O)c1 [Compound 5h]	Kb	nM	18
C[C@@H]1CN(CCCc2ccccc2)CCN1c1cccc(O)c1 [Compound 5c]	Kb	nM	1
C[C@@H]1CN(c2cccc(O)c2)[C@@H](C)CN1CCCc1ccccc1 [Compound 5g]	Kb	nM	6.1
CC(C)[C@H](N)CN1CCN(c2cccc(O)c2)[C@@H](C)C1 [Compound 5i]	Kb	nM	2

query: Requested read-out Kb, target or system cloned human μ opioid receptor (Homo sapiens, UniProt P35372), entry Oc1cccc(N2CCN(CCCc3ccccc3)CC2)c1 [Compound 5a, 3-(4-Phenylpropylpiperazin-1-yl)phenol]
result: 8.5
